Assign EC50 to each entry below.
biological target: T1, human prostate specific membrane antigen (PSMA), full-length, on cells (human, UniProt Q04609 1-750); assay: FMAT direct cell binding, LNCap cells
T1 construct: also called huPSMA; human PSMA
T1 sequence (Q04609 whole entry): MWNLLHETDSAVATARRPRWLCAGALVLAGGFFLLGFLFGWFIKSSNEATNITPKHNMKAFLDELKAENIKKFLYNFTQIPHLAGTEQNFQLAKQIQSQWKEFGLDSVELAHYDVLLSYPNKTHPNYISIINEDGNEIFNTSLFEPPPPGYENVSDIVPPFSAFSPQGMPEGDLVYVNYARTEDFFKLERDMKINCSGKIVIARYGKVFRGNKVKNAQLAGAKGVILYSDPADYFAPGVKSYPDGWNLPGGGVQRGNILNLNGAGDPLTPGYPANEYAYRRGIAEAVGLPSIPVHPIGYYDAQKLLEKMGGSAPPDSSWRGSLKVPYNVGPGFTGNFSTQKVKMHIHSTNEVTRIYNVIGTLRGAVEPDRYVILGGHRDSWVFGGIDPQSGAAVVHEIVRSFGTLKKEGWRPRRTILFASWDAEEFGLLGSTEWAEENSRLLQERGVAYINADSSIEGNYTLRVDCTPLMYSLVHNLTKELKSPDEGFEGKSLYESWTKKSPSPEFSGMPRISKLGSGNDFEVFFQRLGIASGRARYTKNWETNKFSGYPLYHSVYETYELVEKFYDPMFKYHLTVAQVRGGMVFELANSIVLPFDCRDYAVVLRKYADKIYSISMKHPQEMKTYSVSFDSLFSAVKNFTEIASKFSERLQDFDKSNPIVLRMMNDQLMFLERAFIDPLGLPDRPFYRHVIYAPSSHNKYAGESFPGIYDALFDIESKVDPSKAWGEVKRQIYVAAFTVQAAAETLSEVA
The reply should be a number in nM, with the unit left off.

Form field: reported EC50 of single VH domain antibody 1.11 (VHH, Human single VH domain antibody (Humabody)) VHH: EVQLLESGGGLVQPGGSLRLSCAASGFSFSSYALSWVRQAPGKGLEWVSSIGENNDTTDYADNVKGRFTISRDNSKNTLYLQMNSLRVEDTAVYYCVKDGVHWGQGTLVTVSS
0.119

Form field: reported EC50 of single VH domain antibody 1.14 (VHH, Human single VH domain antibody (Humabody)) VHH: EVQLLESGGGLVQPGGSLRLSCAASGFSFSSYALSWVRQAPGKGLEWVSSIGENNATTDYADVVKGRFTISRDNSKNTLYLQMNSLRVEDTAVYYCVKDGVHWGQGTLVTVSS
0.0833

Form field: reported EC50 of single VH domain antibody 2.1 (VHH, Human single VH domain antibody (Humabody); tested with a C-terminal His tag; 71-95; also called VH 2.1; VH2.1) VHH: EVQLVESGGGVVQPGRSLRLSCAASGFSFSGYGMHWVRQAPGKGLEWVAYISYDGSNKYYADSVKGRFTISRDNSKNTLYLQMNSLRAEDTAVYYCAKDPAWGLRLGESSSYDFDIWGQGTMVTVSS
0.0607

Form field: reported EC50 of single VH domain antibody 2.14 (VHH, Human single VH domain antibody (Humabody); C-terminal His tag, residues not tied) VHH: EVQLVESGGGVVQPGRSLRLSCAASGFSFSGYGVHWVRQAPGKGLEWVAYISYDASNKYYADNVKGRFTISRDNSKNTLYLQMNSLRAEDTAVYYCAKDPAWGLRLGESSSYDFDIWGQGTMVTVSS
0.0332

Form field: reported EC50 of single VH domain antibody 1.18 (VHH, Human single VH domain antibody (Humabody)) VHH: EVQLLESGGGLVQPGGSLRLSCAASGFSFSSYALSWVRQAPGKGLEWVSSIGENNATTDYAASVKGRFTISRDNSKNTLYLQMNSLRVEDTAVYYCVKDGVHWGQGTLVTVSS
0.0424

Form field: reported EC50 of single VH domain antibody 2.18 (VHH, Human single VH domain antibody (Humabody); C-terminal His tag, residues not tied) VHH: EVQLVESGGGVVQPGRSLRLSCAASGFSFSGYGQHWVRQAPGKGLEWVAYISYDASNKYYADNVKGRFTISRDNSKNTLYLQMNSLRAEDTAVYYCAKDPAWGLRLGESSSYDFDIWGQGTMVTVSS
0.0354

Form field: reported EC50 of single VH domain antibody 1.8 (VHH, Human single VH domain antibody (Humabody)) VHH: EVQLLESGGGLVQPGGSLRLSCAASGFSFSSYAMSWVRQAPGKGLEWVSSIGENDGTTDYADSVKGRFTISRDNSKNTLYLQMNSLRVEDTAVYYCVKDGVHWGQGTLVTVSS
0.147

Form field: reported EC50 of single VH domain antibody 1.13 (VHH, Human single VH domain antibody (Humabody)) VHH: EVQLLESGGGLVQPGGSLRLSCAASGFSFSSYALSWVRQAPGKGLEWVSSIGENNHTTDYAADVKGRFTISRDNSKNTLYLQMNSLRVEDTAVYYCVKDGVHWGQGTLVTVSS
0.0386
